// data source = PubChem BioAssay

TARGET OR SYSTEM: Calmodulin-1 (Homo sapiens) (UniProt P0DP23)
PROCEDURE DETAILS: CALM1 binders on microarrays, EGTA buffer, profiling panel, biochemical, small-molecule microarray, Cy5-labelled CALM1 (AID 1111);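 also: labelled calmodulin applied in Tris saline Tween buffer holding calcium plus EGTA and DTT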
PROTOCOL CONDITIONS: Cy5-CALM1 binding fluorescence, higher = more signal
Threshold check on composite z-score: at or above 0.4 gives Criterion met, strictly below gives Criterion not met.

Use these answered entries as a reference point.
COMPOUND: COc1ccc(/C=C/C=O)cc1
LABEL CLASS: Criterion not met
--
COMPOUND: C=C(COC)/C(=C/C[C@@H](OC(=O)c1ccncc1)c1ccc(CO)o1)c1cc(C(=O)OC)ccc1OC
LABEL CLASS: Criterion not met
--
COMPOUND: NCCCCCCNC(=O)[C@@H]1C[C@@H]2C(=O)NCC(=O)N2[C@@H]1c1ccc(O)cc1
LABEL CLASS: Criterion met
--
COMPOUND: CC(=O)NCCCC[C@@H]1NC(=O)[C@@H]2C[C@H](C(=O)NCCCCCNC(=O)CS)[C@H](c3cccc(OCCO)c3)N2C1=O
LABEL CLASS: Criterion not met

Please tell me: is the compound CC(=O)NCCCC[C@@H]1NC(=O)[C@H]2C[C@@H](C(=O)NCCCCCCNC(=O)CS)[C@@H](c3ccc(O)cc3)N2C1=O at or over 0.4 in terms of composite z-score? Criterion not met

Please tell me: is the compound [N-]=[N+]=Nc1ccccc1[C@H]1OC(c2ccc(OCCCO)cc2)=N[C@@]1(CCS(=O)(=O)c1ccccc1)C(N)=O at or over 0.4 in terms of composite z-score? Criterion met

Please tell me: is the compound COc1ccc([Si](C)(C)[C@@H]2[C@@H](CCO)O[C@]3(C(=O)N(Cc4ccc(N(C=O)c5ccccc5)cc4)c4ccccc43)[C@H]2C)cc1 at or over 0.4 in terms of composite z-score? Criterion met

Please tell me: is the compound [N-]=[N+]=Nc1ccccc1[C@H]1OC(c2ccc(OCCCO)cc2)=N[C@@]1(CCS(=O)(=O)c1ccccc1)C(=O)NCC(O)CO (stereo partly specified) at or over 0.4 in terms of composite z-score? Criterion met

Please tell me: is the compound CO[C@H]1O[C@H](CO)[C@@H](OC(=O)Nc2ccc(Oc3ccccc3)cc2)[C@H](OC(=O)Nc2ccc3c(c2)OCO3)[C@H]1OC(=O)Nc1ccc2c(c1)OCO2 at or over 0.4 in terms of composite z-score? Criterion met

====

TARGET OR SYSTEM: Calmodulin-1 (Homo sapiens)
PROCEDURE DETAILS: CALM1 binders on microarrays, EGTA buffer, profiling panel, biochemical, small-molecule microarray, Cy5-labelled CALM1 (AID 1111);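 also: labelled calmodulin applied in Tris saline Tween buffer holding calcium plus EGTA and DTT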
PROTOCOL CONDITIONS: Cy5-CALM1 binding fluorescence, higher = more signal
VALUE TYPE: composite z-score

COMPOUND: O=C(N1CCCCC1)[C@]1(Cc2ccccc2)N=C(c2ccc(OCCCO)cc2)O[C@@H]1c1ccccc1
composite z-score: 1.48
--
COMPOUND: C=CCNC(=O)[C@H]1[C@@H]2C(=O)O[C@@H](c3ccccc3)[C@@H](c3ccccc3)N2[C@@H](c2ccccc2OCCO)[C@]12C(=O)Nc1ccc(C#CCC(C(=O)OC)C(=O)OC)cc12
composite z-score: 2.02
--
COMPOUND: COc1ccc(CCNC(=O)[C@@]2(Sc3ccc(C)cc3)CC(=O)N(C3Cc4ccccc4C3)[C@@H]2c2ccc(CO)cc2I)cc1
composite z-score: 0.113
--
COMPOUND: [N-]=[N+]=NCc1ccccc1C[C@]1(C(=O)N2CCCCC2)N=C(c2ccc(OCCCO)cc2)O[C@H]1c1ccccc1N=[N+]=[N-]
composite z-score: 1.43
--
COMPOUND: O=C1NC(=O)C2C1C=CC(C(O)c1cc(C(F)(F)F)cc(C(F)(F)F)c1)N2Nc1ccccn1 (stereo not given)
composite z-score: -0.0336
--
COMPOUND: CC(C)[Si]1(C(C)C)O[C@@H](c2ccccc2)c2cc(-c3ccc(-c4ccc(Cl)c(Cl)c4)o3)nc(-c3ccccc3)c21
composite z-score: 0.487
--
COMPOUND: CCOC(=O)C[C@H]1[C@H](OC(=O)c2ccc(C(=O)c3ccccc3)cc2)[C@@H](NC(=O)c2ccccc2)c2cc(OCCCO)ccc2N1C(=O)c1ccc2ccccc2n1
composite z-score: 1.61
--
COMPOUND: CC(C)C(O)C1C=CC2C(=O)N(c3ccccc3)C(=O)C2N1Nc1ccc([N+](=O)[O-])cc1 (stereo not given)
composite z-score: 0.594

Given the entry COC(=O)C(CC#Cc1ccc2c(c1)[C@]1(C(=O)N2)[C@H](c2ccc(OCCO)cc2)N2[C@H](c3ccccc3)[C@H](c3ccccc3)OC(=O)[C@H]2[C@@H]1C(=O)N1CCc2cc(OC)c(OC)cc2C1)C(=O)OC , what composite z-score was observed with Calmodulin-1 (Homo sapiens)? 1.66

Given the entry Cc1ccc(S[C@]2(C(=O)O)CC(=O)N(C(C)C)[C@@H]2c2ccc(CO)cc2I)cc1 , what composite z-score was observed with Calmodulin-1 (Homo sapiens)? 1.75

Given the entry C=CC[C@]1(C(=O)NCCCOC)N=C(c2ccc(OCCCO)cc2)O[C@H]1c1ccccc1CN=[N+]=[N-] , what composite z-score was observed with Calmodulin-1 (Homo sapiens)? 2.12

====

TARGET OR SYSTEM: NADPH oxidase 4 (Homo sapiens)
PROCEDURE DETAILS: NOX4-dependent H2O2 signal modulators, primary screen, NOX inhibitor project, cell-based, HEK293-NOX4, tetracycline-induced, Amplex Red fluorescence (AID 1160)
PROTOCOL CONDITIONS: 45 min, higher = more signal, called active from +8 up or from −8 down
Entries get a class label from measured z-score. See ranges: I = under 0.08, II = from 0.08 up to 0.6, III = 0.6 and over

Tag the class for CCCC#C[Si](O[C@H](CC)c1cn(Cc2cccc(Cl)c2)nn1)(C(C)C)C(C)C I

Tag the class for COC(=O)[C@@]1(Cc2ccc(F)cc2)[C@H]2c3cc(C(=O)N4CCCC4)n(CCCNc4ncc(C(F)(F)F)cc4Cl)c3C[C@H]2CN1C(=O)c1ccccc1 I

Tag the class for CC(=O)NCCCC[C@@H]1NC(=O)[C@@H]2C[C@H](C(=O)NCCCCCNC(=O)CS)[C@H](c3cccc(OCCO)c3)N2C1=O II

Tag the class for CO[C@H]1O[C@H](CO)[C@@H](OC(=O)Nc2ccc(C(F)(F)F)cc2)[C@H](OC(=O)Nc2ccc3c(c2)OCO3)[C@@H]1OC(=O)Nc1ccc2c(c1)OCO2 I

Tag the class for O=C1C[C@@](C(=O)NCCN2CCOCC2)(c2ccc([N+](=O)[O-])cc2)[C@@H](c2ccc(CO)cc2)N1CC12CC3CC(CC(C3)C1)C2 I

Tag the class for C=CC[C@@]1(C(=O)NCCN2CCOCC2)N=C(c2ccc(OCCCO)cc2)O[C@@H]1c1ccccc1N=[N+]=[N-] I

====

TARGET OR SYSTEM: Fibroblast growth factor 10 (Homo sapiens)
PROCEDURE DETAILS: FGF10 binders on small-molecule microarrays, primary screen, biochemical, small-molecule microarray, 635 nm fluorescence (AID 1102)
PROTOCOL CONDITIONS: FGF10 binding, fluorescence 635 nm, higher = more signal
VALUE TYPE: composite z-score
Lab note: jot down the number only; don't add units.

Please report the recorded composite z-score for C=CCNC(=O)[C@@H]1[C@H]2C(=O)O[C@H](c3ccccc3)[C@H](c3ccccc3)N2[C@H](c2ccccc2OCCO)[C@@]12C(=O)N(C(=O)OCCOC)c1ccccc12 . 1.27

Please report the recorded composite z-score for CN(C)CCCCCCNC(=O)[C@H]1C[C@H]2C(=O)N[C@@H](CCCCN)C(=O)N2[C@H]1c1cccc(OCCO)c1 . 1.43

Please report the recorded composite z-score for C=CC[C@@]1(C(=O)NCCN2CCOCC2)N=C(c2ccc(OCCCO)cc2)O[C@@H]1c1ccccc1N=[N+]=[N-] . 0.0038

Please report the recorded composite z-score for CCC[C@@H]1C[C@@]1(CCC)[C@@H](NS(=O)(=O)c1cccc2cccnc12)c1ccc(Cl)cc1 . 0.044

====

PROCEDURE DETAILS: binders of probe aFGF10 on microarray, primary screen, stem cell growth factor project, biochemical, small-molecule microarray, fluorescence 635/667 (AID 1071);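 also: score merges 667 nm spot intensity and signal to noise from triplicate slides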
PROTOCOL CONDITIONS: higher = more signal
Threshold check on composite z-score: at or above 0.5 gives Yes, strictly below gives No.

Please tell me: is the molecule O[C@@H](Cc1ccccc1)[C@H]1C2C=CCCC=C2CN1Cc1cccc(Cl)c1 (some centres not stated) at or over 0.5 in terms of composite z-score? Yes

Please tell me: is the molecule COC(=O)c1c(CC[C@@H](CO)NC(=O)NCCn2cc(C3(O)CCCC3)nn2)oc(C(C)=O)c1C(=O)OC at or over 0.5 in terms of composite z-score? No

Please tell me: is the molecule CCC[C@@H]1C[C@@]1(CCC)[C@@H](NS(=O)(=O)c1cccc2cccnc12)c1ccc(Cl)cc1 at or over 0.5 in terms of composite z-score? No
